B1: library; the commonest letter at each place (parent)
chain: MKPVTLYDVAEYAGVSYQTVSRVVNQASHVSAKTREKVEAAMAELNYIPNRVAQQLAGKQSLLIGVATSSLALHAPSQIVAAIKSRADQLGASVVVSMVERSGVEACKAAVHNLLAQRVSGLIINYPLDDQDAIAVEAACTNVPALFLDVSDQTPINSIIFSHEDGTRLGVEHLVALGHQQIALLAGPLSSVSARLRLAGWHKYLTRNQIQPIAEREGDWSAMSGFQQTMQMLNEGIVPTAMLVANDQMALGAMRAITESGLRVGADISVVGYDDTEDSSCYIPPLTTIKQDFRLLGQTSVDRLLQLSQGQAVKGNQLLPVSLVKRKTTLAPNTQTASPRALADSLMQLARQVSRLESGQ

- Variants of: B1
- measurementProtocol: saturating output G-infinity (YFP) (log10 MEF); higher = higher reporter expression at saturating IPTG
- measurementParameters: with IPTG
Use Yes when the recorded saturating output G-infinity (log10) is no lower than 4; use No when it is lower.

The examples below pair each entry with its known result.
* S69T S97T | Yes
* Q317L | Yes
* V80L A87P V301M E357G | No
* G91D V94A R101G S158C T167M E172D A176S F226Y T276S T299A | No
* P285S V301M S308P M347V | Yes
* M42I R51C | Yes

[Q] // inclusive: saturating output G-infinity (log10) at least 4? input: `F161L`
[A] Yes

[Q] // inclusive: saturating output G-infinity (log10) at least 4? input: I160N R263S L305Q
[A] Yes

[Q] // inclusive: saturating output G-infinity (log10) at least 4? input: `F161V`
[A] Yes

[Q] // inclusive: saturating output G-infinity (log10) at least 4? input: S70R Q181H
[A] Yes
